Where do the numbers come from? From PubChem BioAssay (NCI).

- Tested on: CCRF-CEM leukemia
- assay remarks: NCI tumour cell line growth inhibition, 48 h
readout type: TGI (µM)
Answer format: numeric, µM implied, no suffix.

Look up TGI for this compound: OCc1ccc(N(Cc2ccc(F)cc2)C2CCC2)cc1Cl
34.6

Next:
Look up TGI for this compound: COC1=C(OC)C(=O)c2cc(SC)c(=O)c(SC)cc2C1=O
4.93

// same read-out, input: COc1c(O)cc2oc3cc(O)c(CC=C(C)C)c(O)c3c(=O)c2c1C/C=C(\C)CCC=C(C)C
32.5

// same read-out, input: CC1/C=C/C=C/CC/C=C/C=C/C=C/C=C/C(OC2OC(C)C(O)C(N)C2O)CC2OC(CC(O)C(O)CCC(O)CC(O)CC(O)CC(=O)OC(C)C(C)C1O)CC(O)C2C(=O)O (centres undefined)
59.4
